# subjectOfTest: Recombinant human his-tagged IGF 1R extracellular domain protein (human) (UniProt P08069)
# protocol: SPR, captured IgG, IGF-1R ECD-his analyte, dissociation pH 7.4
readoutName: koff (s⁻¹)
Entry rule: numbers only, all in s⁻¹.

IN: Which koff reading was recorded for the binder VRDN-02510 (antibody, V domains shown) VH: EVQLVQSGGGLVKPGGSLRLSCAASGFTFSSFAMHWVRQAPGKGLEWISVIHTRGATYYADSVKGRFTISRDNAKNSLYLQMNSLRAEDTAVYYCARLGNFYYGMDVWGQGTTVTVSS VL: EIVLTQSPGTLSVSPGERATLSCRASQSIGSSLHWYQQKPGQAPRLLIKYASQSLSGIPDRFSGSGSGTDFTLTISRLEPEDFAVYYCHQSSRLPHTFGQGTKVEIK ?
OUT: 5.3e-05

---
IN: Which koff reading was recorded for the binder VRDN-02504 (antibody, V domains shown) VH: EVQLVQSGGGLVKPGGSLRLSCAASGFTHSSFAMHWVRQAPGKGLEWISVIDTRGATYYADSVKGRFTISRDNAKNSLYLQMNSLRAEDTAVYYCARLGNFYYGMDVWGQGTTVTVSS VL: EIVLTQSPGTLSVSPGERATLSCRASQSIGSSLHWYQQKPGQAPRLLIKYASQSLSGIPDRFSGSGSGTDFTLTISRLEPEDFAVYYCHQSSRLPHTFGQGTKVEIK ?
OUT: 0.000186

IN: Moving on to VRDN-02544 (antibody, V domains shown) VH: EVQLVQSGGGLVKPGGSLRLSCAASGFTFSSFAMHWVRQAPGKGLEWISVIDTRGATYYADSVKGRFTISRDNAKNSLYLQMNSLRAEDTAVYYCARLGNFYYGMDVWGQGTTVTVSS VL: EIVLTQSPGTLSVSPGERATLSCRASQSIGSSLHWYQQKPGQAPRLLIKYASQSHSGIPDRFSGSGSGTDFTLTISRLEPEDFAVYYCHQSSRLPHTFGQGTKVEIK
OUT: 6.18e-05

IN: Moving on to VRDN-02513 (antibody, V domains shown) VH: EVQLVQSGGGLVKPGGSLRLSCAASGFTFSSFAMHWVRQAPGKGLEWISVIDTRHATYYADSVKGRFTISRDNAKNSLYLQMNSLRAEDTAVYYCARLGNFYYGMDVWGQGTTVTVSS VL: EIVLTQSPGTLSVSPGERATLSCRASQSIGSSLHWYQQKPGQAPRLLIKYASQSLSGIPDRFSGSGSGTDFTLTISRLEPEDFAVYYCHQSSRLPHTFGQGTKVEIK
OUT: 5.09e-05

IN: Moving on to VRDN-02536 (antibody, V domains shown) VH: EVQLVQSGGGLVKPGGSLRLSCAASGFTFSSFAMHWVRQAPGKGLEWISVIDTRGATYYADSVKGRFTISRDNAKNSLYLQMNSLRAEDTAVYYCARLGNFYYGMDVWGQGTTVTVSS VL: EIVLTQSPGTLSVSPGERATLSCRASQSIGSHLHWYQQKPGQAPRLLIKYASQSLSGIPDRFSGSGSGTDFTLTISRLEPEDFAVYYCHQSSRLPHTFGQGTKVEIK
OUT: 1e-06

IN: Moving on to VRDN-02530 (antibody, V domains shown) VH: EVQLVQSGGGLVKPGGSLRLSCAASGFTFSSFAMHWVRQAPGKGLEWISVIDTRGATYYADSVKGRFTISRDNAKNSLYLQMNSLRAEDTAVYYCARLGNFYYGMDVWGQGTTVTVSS VL: EIVLTQSPGTLSVSPGERATLSCRAHQSIGSSLHWYQQKPGQAPRLLIKYASQSLSGIPDRFSGSGSGTDFTLTISRLEPEDFAVYYCHQSSRLPHTFGQGTKVEIK
OUT: 1.53e-05
